As shown below, each of these molecules has a reported CL/F value.
- Protocol summary: Plasma pharmacokinetics of the CYP probe substrates and metabolites
- Format: in vivo, human
- Experimental parameters: Period 1, CYP probes alone, n = 20, mean ± SD
Reported property: CL/F (L/h)

Cn1c(=O)c2c(ncn2C)n(C)c1=O [Caffeine, caffeine]: 6.53
COc1ccc2c(c1)[C@]13CCCC[C@@H]1[C@H](C2)N(C)CC3 [Dextromethorphan, dextromethorphan]: 4120
Cc1ncc2n1-c1ccc(Cl)cc1C(c1ccccc1F)=NC2 [Midazolam, midazolam]: 68.1
COc1ccc2[nH]c([S+]([O-])Cc3ncc(C)c(OC)c3C)nc2c1 (stereo not shown) [Omeprazole, omeprazole]: 26.5

###

As shown below, each of these molecules has a reported AUC(0-t) value.
- Protocol summary: Plasma pharmacokinetics of the CYP probe substrates and metabolites
- Assay type: in vivo, human
- Experimental parameters: human, plasma, oral, AUCt, Period 1, CYP probes alone, n = 20, mean ± SD
Reported property: AUC(0-t) (ng·h/mL)

COc1ccc2c(c1)[C@]13CCCC[C@@H]1[C@H](C2)N(C)CC3 [Dextromethorphan, dextromethorphan]: 250
COc1ccc2[nH]c([S+]([O-])Cc3ncc(C)c(OC)c3C)nc2c1 (stereo not drawn) [Omeprazole, omeprazole]: 2520
Cc1ncc2n1-c1ccc(Cl)cc1C(c1ccccc1F)=NC2 [Midazolam, midazolam]: 87.5

###

- Protocol summary: Plasma pharmacokinetics of the CYP probe substrates and metabolites
- Format: in vivo, human
- Experimental parameters: human, plasma, oral, AUCinf, Period 1, CYP probes alone, n = 20, mean ± SD
As shown below, each of these compounds has a reported AUC(0-inf) value.
Reported property: AUC(0-inf) (ng·h/mL)

COc1ccc2c(c1)[C@]13CCCC[C@@H]1[C@H](C2)N(C)CC3 [Dextromethorphan, dextromethorphan]: 403
COc1ccc2[nH]c([S+]([O-])Cc3ncc(C)c(OC)c3C)nc2c1 (centres unmarked) [Omeprazole, omeprazole]: 2890

###

- Protocol summary: Plasma pharmacokinetics of the CYP probe substrates and metabolites
- Type: in vivo, human
- Experimental parameters: human, plasma, oral
Reported property: Tmax (h)

Cn1c(=O)c2c(ncn2C)n(C)c1=O [Caffeine, caffeine]: 2
COc1ccc2[nH]c([S+]([O-])Cc3ncc(C)c(OC)c3C)nc2c1 (stereo not drawn) [Omeprazole, omeprazole]: 3
COc1ccc2c(c1)[C@]13CCCC[C@@H]1[C@H](C2)N(C)CC3 [Dextromethorphan, dextromethorphan]: 3.5

###

- Protocol summary: Plasma pharmacokinetics of the CYP probe substrates and metabolites
- Format: in vivo, human
- Experimental parameters: Period 2, CYP probes + upadacitinib 30 mg once daily, n = 20, mean ± SD
Reported property: CL/F (L/h)

Cn1c(=O)c2c(ncn2C)n(C)c1=O [Caffeine, caffeine]: 5.31
COc1ccc2c(c1)[C@]13CCCC[C@@H]1[C@H](C2)N(C)CC3 [Dextromethorphan, dextromethorphan]: 3390
COc1ccc2[nH]c([S+]([O-])Cc3ncc(C)c(OC)c3C)nc2c1 (stereo not shown) [Omeprazole, omeprazole]: 34.9
Cc1ncc2n1-c1ccc(Cl)cc1C(c1ccccc1F)=NC2 [Midazolam, midazolam]: 90.2

###

As shown below, each of these compounds has a reported AUC(0-t) value.
- Protocol summary: Plasma pharmacokinetics of the CYP probe substrates and metabolites
- Type: in vivo, human
- Experimental parameters: human, plasma, oral, AUCt, Period 2, CYP probes + upadacitinib 30 mg once daily, n = 20, mean ± SD
Reported property: AUC(0-t) (ng·h/mL)

Cc1ncc2n1-c1ccc(Cl)cc1C(c1ccccc1F)=NC2 [Midazolam, midazolam]: 63.2
COc1ccc2c(c1)[C@]13CCCC[C@@H]1[C@H](C2)N(C)CC3 [Dextromethorphan, dextromethorphan]: 225
COc1ccc2[nH]c([S+]([O-])Cc3ncc(C)c(OC)c3C)nc2c1 (stereo not drawn) [Omeprazole, omeprazole]: 2000

###

- Protocol summary: Plasma pharmacokinetics of the CYP probe substrates and metabolites
- Format: in vivo, human
- Experimental parameters: Period 2, CYP probes + upadacitinib 30 mg once daily, median (range)
As shown below, each of these compounds has a reported Tmax value.
Reported property: Tmax

COc1ccc2nc([S+]([O-])Cc3ncc(CO)c(OC)c3C)[nH]c2c1 (centres unmarked) [5‐Hydroxy omeprazole, 5‐hydroxy‐omeprazole]: 3.0 (2.0‐6.0) h
CC(=O)C[C@@H](c1ccccc1)c1c(O)c2ccccc2oc1=O [S‐warfarin]: 2.0 (0.5‐3.0) h
Cn1c(=O)c2c(ncn2C)n(C)c1=O [Caffeine, caffeine]: 2.0 (1.0‐4.0) h
COc1ccc2c(c1)[C@]13CCCC[C@@H]1[C@H](C2)N(C)CC3 [Dextromethorphan, dextromethorphan]: 3.5 (2.0‐6.0) h
COc1ccc2[nH]c([S+]([O-])Cc3ncc(C)c(OC)c3C)nc2c1 (centres unmarked) [Omeprazole, omeprazole]: 3.0 (2.0‐6.0) h

###

- Protocol summary: Plasma pharmacokinetics of the CYP probe substrates and metabolites
- Format: in vivo, human
- Experimental parameters: human, plasma, po
Reported property: Cmax (ng/mL)

Cc1ncc2n1-c1ccc(Cl)cc1C(c1ccccc1F)=NC2 [Midazolam, midazolam]: 32.6
Cn1c(=O)c2c(ncn2C)n(C)c1=O [Caffeine, caffeine]: 4190
COc1ccc2c(c1)[C@]13CCCC[C@@H]1[C@H](C2)N(C)CC3 [Dextromethorphan, dextromethorphan]: 7.77
